Molecular target: G protein-activated inward rectifier potassium channel 1 (Rattus norvegicus)
Sequence (P63251 whole entry): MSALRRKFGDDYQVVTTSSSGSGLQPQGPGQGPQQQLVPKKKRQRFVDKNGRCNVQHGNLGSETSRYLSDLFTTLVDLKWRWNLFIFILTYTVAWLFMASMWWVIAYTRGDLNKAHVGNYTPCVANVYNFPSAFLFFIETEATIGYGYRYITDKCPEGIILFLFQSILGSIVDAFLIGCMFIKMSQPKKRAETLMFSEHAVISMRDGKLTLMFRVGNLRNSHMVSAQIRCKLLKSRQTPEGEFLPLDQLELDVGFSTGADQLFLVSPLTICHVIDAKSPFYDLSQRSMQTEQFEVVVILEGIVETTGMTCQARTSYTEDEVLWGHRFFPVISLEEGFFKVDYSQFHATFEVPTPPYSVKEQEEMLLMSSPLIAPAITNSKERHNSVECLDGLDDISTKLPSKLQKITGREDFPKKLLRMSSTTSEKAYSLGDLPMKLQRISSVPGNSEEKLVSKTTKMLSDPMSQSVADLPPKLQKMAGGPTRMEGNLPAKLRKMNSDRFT
Test: alpha2C agonist potency with rauwolscine blockade, dose response, mechanism study for alpha2C adrenergic receptor project, cell-based, thallium flux (AID 435016)
Conditions: inactive by the depositor's call
assay_endpoint: EC50 (µM)

O=c1c(-c2ccc3c(c2)OCCO3)c(C(F)(F)F)oc2cc(O)cc(O)c12 :: 12.6

A = CCSc1nnc(NC(=O)NC(CC)(C(F)(F)F)C(F)(F)F)s1
B = CCOC(=O)c1ccc(NC(=O)NC(C)C2CCCO2)cc1 (stereo not drawn)
Ask: Returns: the label, A or B , whose recorded EC50 is the lower number. Record your answer as the label of the chosen record.
Reply: A
(A: 2.29 µM, B: 41.4 µM)
